Reference for the values: ChEMBL document CHEMBL2069212

The entries below are paired with their reported Food intake relative to control.
Tested on: Rattus norvegicus
Test: Antiobesity activity in Sprague-Dawley rat assessed as reduction of food intake at 3 mg/kg, sc qd measured after 24 to 48 hrs relative to control
Format: functional
Conditions: route subcutaneous

Below, 2 molecules whose answers are already recorded.
CCCC[C@H](NC(=O)[C@H](CO)NC(=O)[C@H](Cc1cnc[nH]1)NC(=O)[C@H](CCC(N)=O)NC(=O)[C@H](CO)NC(=O)CNC(=O)COCCOCCNC(=O)CCCCCCCCCCCCCCCc1nnn[nH]1)C(=O)N[C@H]1CCC(=O)NCCCC[C@@H](C(N)=O)NC(=O)[C@H](Cc2c[nH]c3ccccc23)NC(=O)[C@H](CCCNC(=N)N)NC(=O)[C@@H](Cc2ccccc2)NC(=O)[C@@H]2C[C@@H](O)CN2C1=O: 92%
CCCC[C@H](NC(=O)[C@H](CO)NC(=O)[C@H](Cc1cnc[nH]1)NC(=O)[C@H](CCC(N)=O)NC(=O)[C@H](CO)NC(=O)CNC(C)=O)C(=O)N[C@H]1CCC(=O)NCCCC[C@@H](C(N)=O)NC(=O)[C@H](Cc2c[nH]c3ccccc23)NC(=O)[C@H](CCCNC(=N)N)NC(=O)[C@@H](Cc2ccccc2)NC(=O)[C@@H]2C[C@@H](O)CN2C1=O: 103%

With those in mind, consider the next molecule.
For record CCCCCCCCCCCCCCCC(=O)NCC(=O)NCC(=O)NCC(=O)NCC(=O)NCC(=O)N[C@@H](CCCC)C(=O)N[C@H]1CCC(=O)NCCCC[C@@H](C(N)=O)NC(=O)[C@H](Cc2c[nH]c3ccccc23)NC(=O)[C@H](CCCNC(=N)N)NC(=O)[C@@H](Cc2ccccc2)NC(=O)[C@@H]2C[C@@H](O)CN2C1=O the listed Food intake relative to control is 94%

###

Test system: Rattus norvegicus
Assay: Antiobesity activity in Sprague-Dawley rat assessed as reduction of food intake at 3 mg/kg, sc qd measured after 7 to 24 hrs relative to control
Type: functional
Design: scale not given: the % may be the effect or the level left
Settings: route subcutaneous
The entries below are paired with their reported Activity.

Below, 5 compounds whose answers are already recorded.
CCCC[C@H](NC(=O)[C@H](CN(C)C)NC(=O)[C@H](Cc1cnc[nH]1)NC(=O)[C@H](CCC(N)=O)NC(=O)[C@H](CO)NC(=O)CNC(=O)COCCOCCNC(=O)CCCCCCCCCCCCCCCc1nnn[nH]1)C(=O)N[C@H]1CCC(=O)NCCCC[C@@H](C(N)=O)NC(=O)[C@H](Cc2c[nH]c3ccccc23)NC(=O)[C@H](CCCNC(=N)N)NC(=O)[C@@H](Cc2ccccc2)NC(=O)[C@@H]2C[C@@H](O)CN2C1=O: 60%
CCCC[C@H](NC(=O)[C@H](CNC(=O)CN(CC(=O)O)CC(=O)O)NC(=O)[C@H](Cc1cnc[nH]1)NC(=O)[C@H](CCC(N)=O)NC(=O)[C@H](CO)NC(=O)CNC(=O)COCCOCCNC(=O)CCCCCCCCCCCCCCCc1nnn[nH]1)C(=O)N[C@H]1CCC(=O)NCCCC[C@@H](C(N)=O)NC(=O)[C@H](Cc2c[nH]c3ccccc23)NC(=O)[C@H](CCCNC(=N)N)NC(=O)[C@@H](Cc2ccccc2)NC(=O)[C@@H]2C[C@@H](O)CN2C1=O: 39%
CCCCCCCCCCCCCCCC(=O)NS(=O)(=O)CCCC(=O)NCC(=O)N[C@@H](CO)C(=O)N[C@@H](CCC(N)=O)C(=O)N[C@@H](Cc1cnc[nH]1)C(=O)N[C@@H](CO)C(=O)N[C@@H](CCCC)C(=O)N[C@H]1CCC(=O)NCCCC[C@@H](C(N)=O)NC(=O)[C@H](Cc2c[nH]c3ccccc23)NC(=O)[C@H](CCCNC(=N)N)NC(=O)[C@@H](Cc2ccccc2)NC(=O)[C@@H]2C[C@@H](O)CN2C1=O: 36%
CCCC[C@H](NC(=O)[C@@H](N)CNC(=O)[C@H](Cc1cnc[nH]1)NC(=O)[C@H](CCC(N)=O)NC(=O)[C@H](CO)NC(=O)CNC(=O)COCCOCCNC(=O)CCCCCCCCCCCCCCCc1nnn[nH]1)C(=O)N[C@H]1CCC(=O)NCCCC[C@@H](C(N)=O)NC(=O)[C@H](Cc2c[nH]c3ccccc23)NC(=O)[C@H](CCCNC(=N)N)NC(=O)[C@@H](Cc2ccccc2)NC(=O)[C@@H]2C[C@@H](O)CN2C1=O: 54%
CCCC[C@H](NC(=O)[C@H](CO)NC(=O)[C@H](Cc1cnc[nH]1)NC(=O)[C@H](CCC(N)=O)NC(=O)[C@H](CO)NC(=O)CNC(C)=O)C(=O)N[C@H]1CCC(=O)NCCCC[C@@H](C(N)=O)NC(=O)[C@H](Cc2c[nH]c3ccccc23)NC(=O)[C@H](CCCNC(=N)N)NC(=O)[C@@H](Cc2ccccc2)NC(=O)[C@@H]2C[C@@H](O)CN2C1=O: 99%

For record CCCC[C@H](NC(=O)[C@H](CCC(=O)O)NC(=O)[C@H](Cc1c[nH]cn1)NC(=O)[C@H](CCC(=O)O)NC(=O)[C@H](CCC(=O)O)NC(=O)CNC(=O)COCCOCCNC(=O)CCCCCCCCCCCCCCCc1nnn[nH]1)C(=O)N[C@H]1CCC(=O)NCCCC[C@@H](C(N)=O)NC(=O)[C@H](Cc2c[nH]c3ccccc23)NC(=O)[C@H](CCCNC(=N)N)NC(=O)[C@@H](Cc2ccccc2)NC(=O)[C@@H]2C[C@@H](O)CN2C1=O the listed Activity is 79%

For record CCCCCCCCCCCCCCCC(=O)NCC(=O)N[C@@H](CO)C(=O)N[C@@H](CCC(N)=O)C(=O)N[C@@H](Cc1cnc[nH]1)C(=O)N[C@@H](CO)C(=O)N[C@@H](CCCC)C(=O)N[C@H]1CCC(=O)NCCCC[C@@H](C(N)=O)NC(=O)[C@H](Cc2c[nH]c3ccccc23)NC(=O)[C@H](CCCNC(=N)N)NC(=O)[C@@H](Cc2ccccc2)NC(=O)[C@@H]2C[C@@H](O)CN2C1=O the listed Activity is 58%

For record CCCC[C@H](NC(=O)[C@H](CNC(C)C)NC(=O)[C@H](Cc1cnc[nH]1)NC(=O)[C@H](CCC(N)=O)NC(=O)[C@H](CO)NC(=O)CNC(=O)COCCOCCNC(=O)CCCCCCCCCCCCCCCc1nnn[nH]1)C(=O)N[C@H]1CCC(=O)NCCCC[C@@H](C(N)=O)NC(=O)[C@H](Cc2c[nH]c3ccccc23)NC(=O)[C@H](CCCNC(=N)N)NC(=O)[C@@H](Cc2ccccc2)NC(=O)[C@@H]2C[C@@H](O)CN2C1=O the listed Activity is 40%

For record CCCCCCCCCCCCCCCC(=O)NCC(=O)NCC(=O)NCC(=O)NCC(=O)NCC(=O)N[C@@H](CCCC)C(=O)N[C@H]1CCC(=O)NCCCC[C@@H](C(N)=O)NC(=O)[C@H](Cc2c[nH]c3ccccc23)NC(=O)[C@H](CCCNC(=N)N)NC(=O)[C@@H](Cc2ccccc2)NC(=O)[C@@H]2C[C@@H](O)CN2C1=O the listed Activity is 76%

###

Molecular target: Melanocortin receptor 4 (Homo sapiens)
Sequence (P32245 whole entry): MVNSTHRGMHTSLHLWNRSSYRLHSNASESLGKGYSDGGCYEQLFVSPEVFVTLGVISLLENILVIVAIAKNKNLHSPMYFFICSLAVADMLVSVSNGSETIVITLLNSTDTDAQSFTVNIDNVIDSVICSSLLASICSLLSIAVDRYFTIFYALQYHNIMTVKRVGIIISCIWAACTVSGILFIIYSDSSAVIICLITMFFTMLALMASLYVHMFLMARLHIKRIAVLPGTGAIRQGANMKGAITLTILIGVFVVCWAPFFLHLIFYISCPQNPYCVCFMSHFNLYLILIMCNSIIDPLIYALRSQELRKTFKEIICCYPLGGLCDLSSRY
Assay: Displacement of [125I]-NAD-alpha-MSH from MC4 receptor after 2 hrs by gamma counting in presence of ovalbumin
hey, just use Fulfilled if measured Ki is less than 8 nM, otherwise Not fulfilled

Previously resolved entries follow.
CCCC[C@H](NC(=O)[C@@H](N)CNC(=O)[C@H](Cc1cnc[nH]1)NC(=O)[C@H](CCC(N)=O)NC(=O)[C@H](CO)NC(=O)CNC(=O)COCCOCCNC(=O)CCCCCCCCCCCCCCCc1nnn[nH]1)C(=O)N[C@H]1CCC(=O)NCCCC[C@@H](C(N)=O)NC(=O)[C@H](Cc2c[nH]c3ccccc23)NC(=O)[C@H](CCCN=C(N)N)NC(=O)[C@@H](Cc2ccccc2)NC(=O)[C@@H]2C[C@@H](O)CN2C1=O: Fulfilled
CCCC[C@H](NC(=O)[C@H](CCC(=O)O)NC(=O)[C@H](CCCN=C(N)N)NC(=O)[C@H](CCC(=O)O)NC(=O)[C@H](CCC(=O)O)NC(=O)CNC(=O)COCCOCCNC(=O)CCCCCCCCCCCCCCCc1nnn[nH]1)C(=O)N[C@H]1CCC(=O)NCCCC[C@@H](C(N)=O)NC(=O)[C@H](Cc2c[nH]c3ccccc23)NC(=O)[C@H](CCCN=C(N)N)NC(=O)[C@@H](Cc2ccccc2)NC(=O)[C@@H]2C[C@@H](O)CN2C1=O: Not fulfilled
CCCC[C@H](NC(=O)[C@H](CN(C)C)NC(=O)[C@H](Cc1cnc[nH]1)NC(=O)[C@H](CCC(N)=O)NC(=O)[C@H](CO)NC(=O)CNC(=O)COCCOCCNC(=O)CCCCCCCCCCCCCCCc1nnn[nH]1)C(=O)N[C@H]1CCC(=O)NCCCC[C@@H](C(N)=O)NC(=O)[C@H](Cc2c[nH]c3ccccc23)NC(=O)[C@H](CCCNC(=N)N)NC(=O)[C@@H](Cc2ccccc2)NC(=O)[C@@H]2C[C@@H](O)CN2C1=O: Fulfilled

Report whether reported Ki is lower than 8 nM (strictly) for CCCC[C@H](NC(=O)[C@H](CO)NC(=O)[C@H](CCCCN=C(N)N)NC(=O)[C@H](CCC(N)=O)NC(=O)[C@H](CO)NC(=O)CNC(C)=O)C(=O)N[C@H]1CCC(=O)NCCCC[C@@H](C(N)=O)NC(=O)[C@H](Cc2c[nH]c3ccccc23)NC(=O)[C@H](CCCN=C(N)N)NC(=O)[C@@H](Cc2ccccc2)NC(=O)[C@@H]2C[C@@H](O)CN2C1=O
Fulfilled
